- System: MCF-7 cells
- PROTOCOL_SUMMARY: Drug sensitivity (MTS), MCF-7
- Type: cell-based
- STUDY_CONDITIONS: Homo sapiens, MCF7, 48 h, doxorubicin, PN-transfected MCF-7, 48 h, MTS; P-value = 0.013 vs mock
PARAMETER: IC50 (nM)
Express the result in nM but write the number alone.

Request: Given `COc1cccc2c1C(=O)c1c(O)c3c(c(O)c1C2=O)C[C@@](O)(C(=O)CO)C[C@@H]3O[C@H]1C[C@H](N)[C@H](O)[C@H](C)O1` , respond with its IC50.
Result: 1440

---

- Test system: MCF-7 cells
- PROTOCOL_SUMMARY: Drug sensitivity (MTS), MCF-7
- Assay type: cell-based
- STUDY_CONDITIONS: Homo sapiens, MCF7, 48 h, doxorubicin, mock transfected MCF-7, 48 h, MTS
PARAMETER: IC50 (nM)
Express the result in nM but write the number alone.

Request: Given `COc1cccc2c1C(=O)c1c(O)c3c(c(O)c1C2=O)C[C@@](O)(C(=O)CO)C[C@@H]3O[C@H]1C[C@H](N)[C@H](O)[C@H](C)O1` , respond with its IC50.
Result: 1070

---

- Tested on: MDA-MB-231 cells
- PROTOCOL_SUMMARY: Drug sensitivity (MTS), MDA-MB-231
- Type: cell-based
- STUDY_CONDITIONS: Homo sapiens, MDA-MB-231, 48 h, doxorubicin, untreated control MDA-MB-231 (rPN treatment experiment), 48 h, MTS
- Method: Determination the IC50 of BCA cells in response to chemotherapeutic drugs was analyzed by MTS assay. […] After that, cell viability was determined by the MTS assay. Combination index (CI) was calculated by IC50 of combination of drug and PN or anti-PN peptide divided by IC50 of chemotherapeutic drug alone. […]
PARAMETER: IC50

Request: Given `COc1cccc2c1C(=O)c1c(O)c3c(c(O)c1C2=O)C[C@@](O)(C(=O)CO)C[C@@H]3O[C@H]1C[C@H](N)[C@H](O)[C@H](C)O1` , respond with its IC50.
Result: 845 nM
